Measured values drawn from paper PMC6863848 for this set.

- test: Ex vivo biodistribution and tumor targeting
- measurement-context: female, BALB/c nu/nu, mouse, tumor, iv, 45 pmol per mouse, total radioactivity, Tumor uptake, PC-3-xenografted BALB/c nu/nu mice, iv 25 kBq/45 pmol, 24 h pi, 4 mice per data point
Recorded tissue uptake at 24 h, one value per entry.
Lab note: write values as number then unit, every time.

Solved entries:
CC(C)C[C@H](NC(=O)C[C@H](O)[C@H](CC(C)C)NC(=O)[C@H](Cc1c[nH]cn1)NC(=O)CNC(=O)[C@@H](NC(=O)[C@H](C)NC(=O)[C@H](Cc1c[nH]c2ccccc12)NC(=O)[C@H](CCC(N)=O)NC(=O)[C@@H](Cc1ccccc1)NC(=O)COCCOCCNC(=O)CN1CCN(CC(=O)O)CCN(CC(=O)O)CC1)C(C)C)C(N)=O = 2.1 %ID/g
CC(C)C[C@H](NC(=O)C[C@H](O)[C@H](CC(C)C)NC(=O)[C@H](Cc1c[nH]cn1)NC(=O)CNC(=O)[C@@H](NC(=O)[C@H](C)NC(=O)[C@H](Cc1c[nH]c2ccccc12)NC(=O)[C@H](CCC(N)=O)NC(=O)[C@@H](Cc1ccccc1)NC(=O)COCCOCCNC(=O)CCC(C(=O)O)N1CCN(CC(=O)O)CCN(CC(=O)O)CCN(CC(=O)O)CC1)C(C)C)C(N)=O (stereo partly shown) = 2.3 %ID/g
CC(C)C[C@H](NC(=O)C[C@H](O)[C@H](CC(C)C)NC(=O)[C@H](Cc1c[nH]cn1)NC(=O)CNC(=O)[C@@H](NC(=O)[C@H](C)NC(=O)[C@H](Cc1c[nH]c2ccccc12)NC(=O)[C@H](CCC(N)=O)NC(=O)[C@@H](Cc1ccccc1)NC(=O)COCCOCCNC(=O)CCC(C(=O)O)N1CCN(CC(=O)O)CCN(CC(=O)O)CC1)C(C)C)C(N)=O (stereo partly shown) = 2.3 %ID/g

As a next step, examine the molecule that follows.
In: Param item = `CC(C)C[C@H](NC(=O)C[C@H](O)[C@H](CC(C)C)NC(=O)[C@H](Cc1c[nH]cn1)NC(=O)CNC(=O)[C@@H](NC(=O)[C@H](C)NC(=O)[C@H](Cc1c[nH]c2ccccc12)NC(=O)[C@H](CCC(N)=O)NC(=O)[C@@H](Cc1ccccc1)NC(=O)COCCOCCNC(=O)CN1CCN(CC(=O)O)CCN(CC(=O)O)CCN(CC(=O)O)CC1)C(C)C)C(N)=O` ; retrieve measured tissue uptake at 24 h.
Out: 4.4 %ID/g

---

- test: Ex vivo biodistribution and tumor targeting
- measurement-context: female, BALB/c nu/nu, mouse, spleen, iv, 45 pmol per mouse, total radioactivity, Spleen uptake, PC-3-xenografted BALB/c nu/nu mice, iv 25 kBq/45 pmol, 24 h pi, 4 mice per data point
reported-metric: tissue uptake at 24 h (%ID/g)
Numbers only here, please. The scale is %ID/g.

Solved entries:
CC(C)C[C@H](NC(=O)C[C@H](O)[C@H](CC(C)C)NC(=O)[C@H](Cc1c[nH]cn1)NC(=O)CNC(=O)[C@@H](NC(=O)[C@H](C)NC(=O)[C@H](Cc1c[nH]c2ccccc12)NC(=O)[C@H](CCC(N)=O)NC(=O)[C@@H](Cc1ccccc1)NC(=O)COCCOCCNC(=O)CCC(C(=O)O)N1CCN(CC(=O)O)CCN(CC(=O)O)CCN(CC(=O)O)CC1)C(C)C)C(N)=O (stereo partly shown) = 0.016
CC(C)C[C@H](NC(=O)C[C@H](O)[C@H](CC(C)C)NC(=O)[C@H](Cc1c[nH]cn1)NC(=O)CNC(=O)[C@@H](NC(=O)[C@H](C)NC(=O)[C@H](Cc1c[nH]c2ccccc12)NC(=O)[C@H](CCC(N)=O)NC(=O)[C@@H](Cc1ccccc1)NC(=O)COCCOCCNC(=O)CN1CCN(CC(=O)O)CCN(CC(=O)O)CCN(CC(=O)O)CC1)C(C)C)C(N)=O = 0.035

In: Param item = CC(C)C[C@H](NC(=O)C[C@H](O)[C@H](CC(C)C)NC(=O)[C@H](Cc1c[nH]cn1)NC(=O)CNC(=O)[C@@H](NC(=O)[C@H](C)NC(=O)[C@H](Cc1c[nH]c2ccccc12)NC(=O)[C@H](CCC(N)=O)NC(=O)[C@@H](Cc1ccccc1)NC(=O)COCCOCCNC(=O)CCC(C(=O)O)N1CCN(CC(=O)O)CCN(CC(=O)O)CC1)C(C)C)C(N)=O (stereo partly shown) ; retrieve measured tissue uptake at 24 h.
Out: 0.009

In: Next: `CC(C)C[C@H](NC(=O)C[C@H](O)[C@H](CC(C)C)NC(=O)[C@H](Cc1c[nH]cn1)NC(=O)CNC(=O)[C@@H](NC(=O)[C@H](C)NC(=O)[C@H](Cc1c[nH]c2ccccc12)NC(=O)[C@H](CCC(N)=O)NC(=O)[C@@H](Cc1ccccc1)NC(=O)COCCOCCNC(=O)CN1CCN(CC(=O)O)CCN(CC(=O)O)CC1)C(C)C)C(N)=O`
Out: 0.029
